# System: C. elegans
# Measurement Notes: Efficacy against nematodes (C. elegans motility rating)
# Set-up: key: 0: no effect; 7: reduced movement in 24 h; 8: dead in 24 h; 9: dead in 4 h
# Condition Summary: dose 100 ppm, observations at 4 h and 24 h postimmersion
Quantity Name: Rating
// return a plain number; no unit text

Consider the reported Rating for these compounds:
INSERT INTO assay_data (compound, subject_of_test, value_measured) VALUES
  ('CN1CCN(c2ccc(C=C3OC(=O)C(c4ccc(OC(F)(F)F)cc4)=C3O)cc2)CC1 (mixture of isomers)', 'C. elegans', 0),
  ('N#Cc1ccc(C2=C(O)C(=Cc3ccc(-c4ccc(C(F)(F)F)cc4)cc3)OC2=O)cc1 (mixture of isomers)', 'C. elegans', 9),
  ('N#Cc1ccc(C=C2OC(=O)C(c3cccc(Cl)c3)=C2O)cc1 (mixture of isomers)', 'C. elegans', 9),
  ('O=C1OC(=Cc2ccc(Cl)c(Cl)c2)C(O)=C1c1ccc(OC(F)(F)F)cc1 (mixture of isomers)', 'C. elegans', 9);

Reported Rating of O=C1OC(=Cc2ccc(Cl)cc2)C(O)=C1c1cccc(Cl)c1 (mixture of isomers) : 9

Reported Rating of O=C1OC(=Cc2cccs2)C(O)=C1c1ccc(OC(F)(F)F)cc1 (mixture of isomers) : 0

Sourced from patent US7495027B2
